Below, each of the sequences is paired with its reported switch fluorescence ratio value.
# System: ATP;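 further: ATP exposure 15 min at 22 °C before imaging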
# test_details: switch fluorescence ratio, 500 uM ATP over buffer (Cy3 cluster intensity, sum of 5 cycles each) (fold (ratio)); higher = stronger signal-on switching upon ATP binding; sequences stand for … in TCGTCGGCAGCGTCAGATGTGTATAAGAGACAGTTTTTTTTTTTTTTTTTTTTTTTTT…TC
# assay_conditions: aptamer strand: ATP DNA aptamer (quencher-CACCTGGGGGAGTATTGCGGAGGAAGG + anchor), 100 nM annealed; ATP concentration: 500 uM
Give the figure by itself; no unit, no explanation.

seq_text=GGTGGAACAG measurement=1.02
seq_text=GGTCAAACCA measurement=1.03
seq_text=TTTTTAGTTA measurement=0.981
seq_text=TGGTTACGTT measurement=0.983
seq_text=TTTAGTATTT measurement=1.01

Test system ATP; read-out switch fluorescence ratio; what value for `AAGAAAGGGG` ?;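 further: ATP exposure 15 min at 22 °C before imaging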
0.979

Could you do the same for `TCTATTGAGC` , please?
1.03

---

# Tested on: ATP;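 further: ATP exposure 15 min at 22 °C before imaging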
# test_details: switch fluorescence ratio, 500 uM ATP over buffer (Cy3 cluster intensity, sum of 5 cycles each) (fold (ratio)); higher = stronger signal-on switching upon ATP binding; sequences stand for … in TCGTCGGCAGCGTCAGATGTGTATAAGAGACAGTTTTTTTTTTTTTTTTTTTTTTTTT…TC
# assay_conditions: aptamer strand: ATP DNA aptamer (quencher-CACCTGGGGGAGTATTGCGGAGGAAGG + anchor), 100 nM annealed; ATP concentration: 500 uM
Mark Y for reported switch fluorescence ratio of 1 or greater; mark N for anything smaller.

seq_text=TAGGTTGCAA assigned_class=N

Answer whether switch fluorescence ratio of `ACTCCATACA` is greater than or equal to 1.
Y

Subsequent entry: `GGGATCCAGG`
Y

Could you do the same for `CGATGTTTTG` , please?
N

What would you report for `AGAGGGGGTG` ?
N

And for `CAATAGTCAA` ?
Y

Cool, now `TTGGAAATGG`
Y

---

# Test system: ATP;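 further: ATP exposure 15 min at 22 °C before imaging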
# test_details: switch fluorescence ratio, 500 uM ATP over buffer (Cy3 cluster intensity, sum of 5 cycles each) (fold (ratio)); higher = stronger signal-on switching upon ATP binding; sequences stand for … in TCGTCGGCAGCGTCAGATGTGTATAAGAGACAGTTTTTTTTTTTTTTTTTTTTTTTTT…TC
# assay_conditions: aptamer strand: ATP DNA aptamer (quencher-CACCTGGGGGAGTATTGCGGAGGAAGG + anchor), 100 nM annealed; ATP concentration: 500 uM
reported_metric: switch fluorescence ratio
Response field accepts a number only; no unit should be typed.

Below, each entry is followed by its recorded switch fluorescence ratio result.
seq_text=AATGTCAGCT measurement=1.01
seq_text=CTGATAAGCG measurement=0.991
seq_text=AAAAGCGCGG measurement=1.13
seq_text=ATCTCTGGGT measurement=1
seq_text=TTAACCGGGA measurement=1.02
seq_text=GGAATGGTAG measurement=1.01

Reported switch fluorescence ratio for `CTTATAGTAG` : what is it?
0.985

`AGCCCCTTAG` ?
1

---

# Test system: ATP;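 further: ATP exposure 15 min at 22 °C before imaging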
# test_details: switch fluorescence ratio, 500 uM ATP over buffer (Cy3 cluster intensity, sum of 5 cycles each) (fold (ratio)); higher = stronger signal-on switching upon ATP binding; sequences stand for … in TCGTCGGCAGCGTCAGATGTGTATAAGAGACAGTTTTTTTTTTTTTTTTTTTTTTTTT…TC
# assay_conditions: aptamer strand: ATP DNA aptamer (quencher-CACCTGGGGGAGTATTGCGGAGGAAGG + anchor), 100 nM annealed; ATP concentration: 500 uM
reported_metric: switch fluorescence ratio
Could you keep your reply to the number by itself?

seq_text=GTGTTTTTTT reported_metric="switch fluorescence ratio" measurement=0.991

What measured switch fluorescence ratio goes with `GTGGGGTGTG` ?
1.01

Follow-up item: `GAGGAGCTGT`
0.999

Same again, this time with `AAGTGAATAA`
0.998

Proceed to `TACAGCTGCG`
1.01

Next: `ATGGGTTAGC`
0.998

---

# System: ATP;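 further: ATP exposure 15 min at 22 °C before imaging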
# test_details: switch fluorescence ratio, 500 uM ATP over buffer (Cy3 cluster intensity, sum of 5 cycles each) (fold (ratio)); higher = stronger signal-on switching upon ATP binding; sequences stand for … in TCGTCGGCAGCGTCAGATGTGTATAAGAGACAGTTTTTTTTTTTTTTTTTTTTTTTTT…TC
# assay_conditions: aptamer strand: ATP DNA aptamer (quencher-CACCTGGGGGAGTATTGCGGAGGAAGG + anchor), 100 nM annealed; ATP concentration: 500 uM
Please use 1 whenever switch fluorescence ratio is not below 1, and 0 whenever it is.

Sample answers from the record:
seq_text=AACTGATTTC assigned_class=0
seq_text=CAGACGTCGA assigned_class=1
seq_text=AATTAGCAAG assigned_class=1
seq_text=GCGTTCTCGC assigned_class=0
seq_text=CTTTTTTGGT assigned_class=1

API: above_or_equal(metric=switch fluorescence ratio, cutoff=1) for item `GCGGATTAGG`
1

Note, next up: `AAAACACTGG`
1

And for `TGTTATTGGC` ?
1

And what about the sequence `ATAAGTGTGT` ?
0

Another: `ACAGTGCGGC`
0

---

// switch fluorescence ratio lookup, one value per entry
# System: ATP;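 further: ATP exposure 15 min at 22 °C before imaging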
# test_details: switch fluorescence ratio, 500 uM ATP over buffer (Cy3 cluster intensity, sum of 5 cycles each) (fold (ratio)); higher = stronger signal-on switching upon ATP binding; sequences stand for … in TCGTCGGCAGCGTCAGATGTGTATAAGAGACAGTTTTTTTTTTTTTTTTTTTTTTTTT…TC
# assay_conditions: aptamer strand: ATP DNA aptamer (quencher-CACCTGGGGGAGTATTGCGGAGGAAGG + anchor), 100 nM annealed; ATP concentration: 500 uM
Give the figure only, with no unit attached.

seq_text=TGTTAGTCTG system_name=ATP reported_metric="switch fluorescence ratio" measurement=1.03
seq_text=TGAGAGGCGT system_name=ATP reported_metric="switch fluorescence ratio" measurement=1.02
seq_text=TTTTTCAATG system_name=ATP reported_metric="switch fluorescence ratio" measurement=0.979

# ---- query sequence ----
Which measured switch fluorescence ratio value corresponds to `CTCTGACGGC` ?
1.12

---

# Tested on: ATP;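 further: ATP exposure 15 min at 22 °C before imaging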
# test_details: switch fluorescence ratio, 500 uM ATP over buffer (Cy3 cluster intensity, sum of 5 cycles each) (fold (ratio)); higher = stronger signal-on switching upon ATP binding; sequences stand for … in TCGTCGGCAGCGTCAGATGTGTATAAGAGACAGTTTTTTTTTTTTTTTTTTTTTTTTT…TC
# assay_conditions: aptamer strand: ATP DNA aptamer (quencher-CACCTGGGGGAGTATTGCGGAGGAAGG + anchor), 100 nM annealed; ATP concentration: 500 uM
switch fluorescence ratio reference
The reply should be a number, written without any unit.

seq_text=TTAGCGCTTT system_name=ATP reported_metric="switch fluorescence ratio" measurement=0.985
seq_text=TACTTAGCCC system_name=ATP reported_metric="switch fluorescence ratio" measurement=1.07
seq_text=AACTAGAGGG system_name=ATP reported_metric="switch fluorescence ratio" measurement=0.98
seq_text=GGCGTCTTTG system_name=ATP reported_metric="switch fluorescence ratio" measurement=1.02

Entry `CAATGGATTT` has what switch fluorescence ratio?
1.03

---

# Test system: ATP;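 further: ATP exposure 15 min at 22 °C before imaging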
# test_details: switch fluorescence ratio, 500 uM ATP over buffer (Cy3 cluster intensity, sum of 5 cycles each) (fold (ratio)); higher = stronger signal-on switching upon ATP binding; sequences stand for … in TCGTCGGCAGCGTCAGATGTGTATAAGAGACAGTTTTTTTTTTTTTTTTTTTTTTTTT…TC
# assay_conditions: aptamer strand: ATP DNA aptamer (quencher-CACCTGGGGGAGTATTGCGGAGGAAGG + anchor), 100 nM annealed; ATP concentration: 500 uM
reported_metric: switch fluorescence ratio
Number only, please.

// worked examples, switch fluorescence ratio included
seq_text=TCGTGTGGGG system_name=ATP measurement=1.02
seq_text=ATTCCTTTTT system_name=ATP measurement=1
seq_text=TTAAAGAGAA system_name=ATP measurement=1
seq_text=CGAGAAATGG system_name=ATP measurement=1.07
seq_text=GGGTGTGGG system_name=ATP measurement=0.986
seq_text=TGGTTGTCGT system_name=ATP measurement=1.01
seq_text=TTCAGAGAAA system_name=ATP measurement=0.98
seq_text=TTATATTAGA system_name=ATP measurement=0.971

Give switch fluorescence ratio (ATP) of the following sequence: `TGGGGTAGTT`
0.995

Entry to check: `ATCGGGCTGT`
1.03

Then this sequence: `TAAATAGAAT`
1.11

What do you get for `AATGGGGTAT` ?
1.02

Proceed to `GGGTCGCCTG`
0.992

---

Each entry below carries its reported switch fluorescence ratio.
# Test system: ATP;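 further: ATP exposure 15 min at 22 °C before imaging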
# test_details: switch fluorescence ratio, 500 uM ATP over buffer (Cy3 cluster intensity, sum of 5 cycles each) (fold (ratio)); higher = stronger signal-on switching upon ATP binding; sequences stand for … in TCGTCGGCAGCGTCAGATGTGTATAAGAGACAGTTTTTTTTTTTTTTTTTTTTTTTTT…TC
# assay_conditions: aptamer strand: ATP DNA aptamer (quencher-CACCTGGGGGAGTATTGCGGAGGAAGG + anchor), 100 nM annealed; ATP concentration: 500 uM
# output: bare number, no unit

seq_text=TCAGGGGCTG measurement=0.974
seq_text=TACAAGAAGG measurement=1.01
seq_text=AAAGAAGGTA measurement=1

--- query ---
Field: switch fluorescence ratio (ATP). Entry: `AATTATTTTT`
0.987
